Biological target: T1, CD19 antigen on Daudi lymphoma cells (human, UniProt P15391 20-556)
T1 construct: whole, on cells; also called Daudi cells
T1 sequence (looked up): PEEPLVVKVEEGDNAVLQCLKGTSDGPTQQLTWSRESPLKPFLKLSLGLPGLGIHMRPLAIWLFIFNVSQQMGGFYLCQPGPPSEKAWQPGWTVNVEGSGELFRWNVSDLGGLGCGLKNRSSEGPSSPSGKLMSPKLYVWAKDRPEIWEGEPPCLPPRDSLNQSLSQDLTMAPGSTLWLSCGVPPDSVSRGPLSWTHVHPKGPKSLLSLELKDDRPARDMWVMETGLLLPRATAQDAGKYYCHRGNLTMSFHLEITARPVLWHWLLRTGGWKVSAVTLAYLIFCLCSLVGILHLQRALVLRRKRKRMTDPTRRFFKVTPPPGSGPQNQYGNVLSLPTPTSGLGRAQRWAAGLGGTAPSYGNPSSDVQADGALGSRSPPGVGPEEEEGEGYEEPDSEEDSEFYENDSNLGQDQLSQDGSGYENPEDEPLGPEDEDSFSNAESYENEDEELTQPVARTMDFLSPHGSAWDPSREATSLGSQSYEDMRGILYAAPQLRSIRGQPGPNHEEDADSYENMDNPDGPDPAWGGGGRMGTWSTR
Assay: FACS competition on Daudi cells; unlabeled antibody 50 ng/ml (0.5x) vs competitor biotin-B4 VH0/VK0 100 ng/ml
Description: Briefly, a titration series was prepared of biotin-labeled B4 VH0/VK0 antibody pre-mixed at a final concentration of 100 ng/ml with one of the unlabeled, experimental B4 VHvx/VKvy antibodies at 800 ng/ml, 400 ng/ml, 200 ng/ml, 100 ng/ml, and 50 ng/ml in a PBS/2% serum buffer. […] Bound amount of labeled B4 VH0/VK0 antibody was quantitated by FACS analysis, and the results were expressed as “percent inhibition,” relative to the positive binding control. […]
ASSAY_METRIC: % inhibition of labeled B4 binding (%)
Give the number; % is assumed, so skip it.

Query string: Need % inhibition of labeled B4 binding, item B4 VHv2/VKv2 antibody (antibody, V domains shown) VH: QVQLQQPGAEVVKPGASVRLSCKTSGYTFTSNWMHWVKQRPGQGLEWIGEIDPSDSYTNYNQKFKGKAELTVDKSSSTAYMEVSDLTSEDSAVYYCARGSNPYYYAMDYWGQGTSVTVSS VL: DIVLTQSPATLSASPGEKVTMTCSASSGVNYMHWYQQKPGTSPKRWIYDTSKLDSGVPARFSGSGSGTSYSLTISSMEAEDAATYYCHQRGSYTFGGGTKLEIK
Result string: 8
